- TESTED_SYSTEM: T1, Anti-CD28 Fab (SEQ ID NOs: 696, 697)
- T1 construct: Biotinylated and captured on neutravidin coated plates in the phage ELISA
- T1 sequence (VH, as listed by the source, chain 1 of 2): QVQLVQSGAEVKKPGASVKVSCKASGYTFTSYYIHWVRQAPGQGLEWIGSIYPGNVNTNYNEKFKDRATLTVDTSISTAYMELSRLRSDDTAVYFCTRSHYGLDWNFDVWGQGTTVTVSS
- T1 sequence (VL, as listed by the source, chain 2 of 2): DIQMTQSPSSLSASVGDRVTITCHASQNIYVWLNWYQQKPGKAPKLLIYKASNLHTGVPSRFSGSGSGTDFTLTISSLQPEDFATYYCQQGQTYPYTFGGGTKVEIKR
- TEST_NAME: phage ELISA on plate-captured anti-CD28 Fab pre-incubated with CD28 antigen (competitor: CD28)
In this section, each of the binders is paired with its reported Anti-CD28 Fab signal in the presence of CD28 (phage binding ELISA).
MEASURED_PARAMETER: Anti-CD28 Fab signal in the presence of CD28 (phage binding ELISA)

BINDER	RESULT
YCAGHSSEYIPKCL [Phage-974]	0.09
YCDGHSWQYMWKCI [Phage-981]	0.09
YCEGHLPQYMVKCL [Phage-977]	0.07
YCEGHLGIYMTKCL [Phage-980]	0.08
YCEGHSVEYIGKCL [Phage-971]	0.07
YCDGHAEEYLLKCL [Phage-979]	0.05
YCEGHADEYMWKCL [Phage-970]	0.06
YCDGHLPQYLQKCT [Phage-975]	0.07
YCEGHSWEHMEKCL [Phage-973]	0.06
YCDGHAKEYIQKCL [Phage-976]	0.06
YCDGHRVEYMAKCL [Phage-972]	0.09
YCQGHADEYMAKCL [Phage-978]	0.08
YCEGHSEEFMSKCL [Phage-982]	0.08
